Test system: L1210 leukemia ip in BDF1 mice, survival T/C
procedure text: NCI In Vivo Anticancer Drug Screen. Data for tumor model L1210 Leukemia (intraperitoneal) in B6D2F1 (BDF1) mice
condition label: endpoint: mean survival time; dose: 50.0 mg/kg/injection; schedule: Q01DX009 (ip); vehicle: saline; higher = longer survival
Toxic doses and inconclusive results are not listed.
Below: a set of entries, each annotated with reported T/C.

Use the examples below as a reference point.
OCCCC1CCCCN1 (stereo not given): 96 % of control
CC1(C)OCC2SC(n3cnc4c(N)ncnc43)C(O)C2O1 (stereo not given): 98 % of control
C#CCOCCCC(=C)C: 93 % of control
CC1CCc2ccccc2N1CCN (stereo not given): 103 % of control
N#CS: 102 % of control
Nc1cc(I)c2cccnc2c1O: 98 % of control
ClC1C(Cl)C(Cl)C(Cl)C(Cl)C1Cl (stereo not given): 103 % of control
Cc1nc(CON)cs1: 92 % of control
CN(CC#N)CC#N: 95 % of control
CC1=C(CC/C(C)=C/CCC(=O)O)C(C)(C)CCC1: 100 % of control

# ---- query molecule ----
Request: Given the entry COc1cc(C(=O)OC(C)CN2CCN(C(=O)c3cc(OC)c(OC)c(OC)c3)CC2)cc(OC)c1OC (stereo not given) , report its measured T/C.
Result: 101 % of control

###

Tested on: L1210 leukemia ip in BDF1 mice, survival T/C
procedure text: NCI In Vivo Anticancer Drug Screen. Data for tumor model L1210 Leukemia (intraperitoneal) in B6D2F1 (BDF1) mice
condition label: endpoint: mean survival time; dose: 75.0 mg/kg/injection; schedule: Q04DX003 (ip); vehicle: saline; higher = longer survival
Toxic doses and inconclusive results are not listed.
readout name: T/C

Use the examples below as a reference point.
CCCC[n+]1cccc(C#N)c1: 93 % of control
O=C(O)c1cccc2c1ccc1ccccc12: 104 % of control
CCCCCC[N+]1(C)CC2C3C=CC(C3)C2C1 (configuration not stated): 92 % of control

Request: Given the entry O=C(CCl)Nc1ccc(S(=O)(=O)c2ccc([N+](=O)[O-])cc2)cc1 , report its measured T/C.
Result: 92 % of control

Request: Given the entry C=CCCOC(C)=O , report its measured T/C.
Result: 96 % of control

Request: Given the entry C/C=C(\c1ccccc1)[N+](=O)[O-] , report its measured T/C.
Result: 94 % of control

Request: Given the entry CCOC(=O)c1cc2c3n(c1=O)CCCC3C(c1ccncc1)OC2=O (configuration not stated) , report its measured T/C.
Result: 95 % of control

###

System: L1210 leukemia ip in BDF1 mice, survival T/C
procedure text: NCI In Vivo Anticancer Drug Screen. Data for tumor model L1210 Leukemia (intraperitoneal) in B6D2F1 (BDF1) mice
condition label: endpoint: mean survival time; dose: 200.0 mg/kg/injection; schedule: Q01DX001 (ip); vehicle: saline with Tween-80; higher = longer survival
Inconclusive results and toxic doses are left out.
Below: a set of entries, each annotated with reported T/C.

Use the examples below as a reference point.
CSc1ccc(NC(=O)Oc2ccc3c(C)cc(=O)oc3c2)cc1: 94 % of control
CN(C)c1ccc(/C=N/NC(=O)CCCCCCCCC(=O)N/N=C/c2ccc(N(C)C)cc2)cc1: 100 % of control
CCSC(SCC)C(OC(C)=O)C(OC(C)=O)C(OC(C)=O)C(C)OC(C)=O (configuration not stated): 103 % of control
Cc1nnc(N(C)C)nc1C: 97 % of control
COC(O)C(O)C(O)C(O)CO (configuration not stated) (tested in a mixture with another compound): 97 % of control

# ---- query compound ----
Request: Given the entry Cc1cc(C)nc(NNc2nc(C)cc(C)n2)n1 , report its measured T/C.
Result: 104 % of control

###

Test system: L1210 leukemia ip in BDF1 mice, survival T/C
procedure text: NCI In Vivo Anticancer Drug Screen. Data for tumor model L1210 Leukemia (intraperitoneal) in B6D2F1 (BDF1) mice
condition label: endpoint: mean survival time; dose: 12.5 mg/kg/injection; schedule: Q01DX009 (ip); vehicle: Klucel (hydroxypropylcellulose) (HPC); higher = longer survival
Inconclusive results and toxic doses are left out.
readout name: T/C

Use the examples below as a reference point.
COC(=O)CCC(=O)Nc1ccc(C(=O)CBr)cc1: 96 % of control
CC(=O)[O][Hg][CH]1CCC2OC1CC[CH]2[Hg][O]C(C)=O (centres undefined): 97 % of control
COc1cc2[nH]c(C)c(CCN3CCN(c4ccccc4)CC3)c2cc1OC: 96 % of control

# ---- query compound ----
Request: Given the entry O=[N+]([O-])c1cc(S(=O)(=O)OCC2CO2)ccc1Cl (centres undefined) , report its measured T/C.
Result: 96 % of control

###

Test system: L1210 leukemia ip in BDF1 mice, survival T/C
procedure text: NCI In Vivo Anticancer Drug Screen. Data for tumor model L1210 Leukemia (intraperitoneal) in B6D2F1 (BDF1) mice
condition label: endpoint: mean survival time; dose: 25.0 mg/kg/injection; schedule: Q01DX001 (ip); vehicle: carboxymethylcellulose (CMC)
Inconclusive results and toxic doses are left out. No stated cut-off is given here; in the data, active means T/C of 150% or more; inactive means T/C below 125%.
Your response should consist of one outcome taken from YES = active, NO = inactive

CCCCCCN(CCCCCC)CC(=O)NCCCN1CCN(CCCNC(=O)CN(CCCCCC)CCCCCC)CC1: NO
CCCCCCCCCCC[As](=O)(O)O: NO

Request: Please indicate how the test categorized CCOC(=O)c1cc(=O)c2c(ccc3cc(OC)ccc32)[nH]1 .
Result: NO

Request: Please indicate how the test categorized Fc1cc(F)c2ncccc2c1 .
Result: NO

Request: Please indicate how the test categorized O=NN(CCCl)C(=O)N[C@@H]1CCCC[C@H]1NC(=O)N(CCCl)N=O .
Result: YES

###

Below: a set of entries, each annotated with reported T/C.
Test system: L1210 leukemia ip in BDF1 mice, survival T/C
procedure text: NCI In Vivo Anticancer Drug Screen. Data for tumor model L1210 Leukemia (intraperitoneal) in B6D2F1 (BDF1) mice
condition label: endpoint: mean survival time; dose: 200.0 mg/kg/injection; schedule: Q01DX001 (ip); vehicle: carboxymethylcellulose (CMC); higher = longer survival
Inconclusive results and toxic doses are left out.

Use the examples below as a reference point.
C[Si](C)(CCl)O[Si](C)(C)CCl: 106 % of control
CCN1c2ccccc2S(=O)c2cc([N+](=O)[O-])ccc21 (centres undefined): 96 % of control
CC1OC(OC2C(O)C(O)C(O)C(O)C2O)C(N)CC1N=C(N)C(=O)O (centres undefined): 96 % of control

Request: Given the entry O=C1c2cc([N+](=O)[O-])ccc2-c2cc(Br)c(N=C(NO)C(F)(F)F)cc21 , report its measured T/C.
Result: 98 % of control

Request: Given the entry N=c1c2[nH]cnc2ncn1O , report its measured T/C.
Result: 94 % of control

Request: Given the entry O=C(/C=C/c1cccc(Cl)c1)c1ccc(Cl)cc1 , report its measured T/C.
Result: 92 % of control

###

Tested on: L1210 leukemia ip in BDF1 mice, survival T/C
procedure text: NCI In Vivo Anticancer Drug Screen. Data for tumor model L1210 Leukemia (intraperitoneal) in B6D2F1 (BDF1) mice
condition label: endpoint: mean survival time; dose: 400.0 mg/kg/injection; schedule: Q04DX003 (ip); vehicle: carboxymethylcellulose (CMC); higher = longer survival
Inconclusive results and toxic doses are left out.
readout name: T/C

Use the examples below as a reference point.
CNC(=O)Oc1ccc(C2CCCCC2)cc1: 100 % of control
Cc1ccc(C(=O)NO)cc1: 98 % of control
COc1ccc(OC)c(NC(=O)Nc2cccc(C(F)(F)F)c2)c1: 90 % of control
O=C(N/N=C/c1cccc([N+](=O)[O-])c1)C(O)C(O)C(O)C(O)CO (stereo not given): 94 % of control

# ---- query compound ----
Request: Given the entry COc1cc2cc3c4cc(OC)c(OC)cc4cc[n+]3c(/C=C/c3ccccc3)c2cc1OC , report its measured T/C.
Result: 100 % of control

###

System: L1210 leukemia ip in BDF1 mice, survival T/C
procedure text: NCI In Vivo Anticancer Drug Screen. Data for tumor model L1210 Leukemia (intraperitoneal) in B6D2F1 (BDF1) mice
condition label: endpoint: mean survival time; dose: 100.0 mg/kg/injection; schedule: Q04DX002 (ip); vehicle: saline; higher = longer survival
Toxic doses and inconclusive results are not listed.
readout name: T/C

Use the examples below as a reference point.
CCNCC(=O)O: 96 % of control
Cc1cccc(NC(=O)Cc2ccccc2)c1C: 99 % of control
C(CCSC1=NCCN1)CSC1=NCCN1: 105 % of control
OCC1OC([Se][Se]C2OC(CO)C(O)C(O)C2O)C(O)C(O)C1O (stereo not drawn): 105 % of control
CCOCCOCCOCCOc1ccc2c(c1)OCO2: 95 % of control
Cc1cccc(C(=O)OCc2ccccc2CN2CCCC2)c1: 93 % of control

Request: Given the entry CCN(CC)CCOc1ccc(C(C)(C)c2ccc(OCCN(CC)CC)cc2)cc1 , report its measured T/C.
Result: 108 % of control

Request: Given the entry CCCCCCC12CCC(O)C1(CCCCCCC(=O)O)O2 (stereo not drawn) , report its measured T/C.
Result: 102 % of control

Request: Given the entry CCCCCCOC(=O)C(C)(O)C(Cl)c1ccccc1 (stereo not drawn) , report its measured T/C.
Result: 100 % of control

Request: Given the entry O=C(CC(O)C(Cl)(Cl)Cl)CC(O)C(Cl)(Cl)Cl (stereo not drawn) , report its measured T/C.
Result: 96 % of control

Request: Given the entry CCCCC[CH2][Sn]([CH2]C)([CH2]C)[CH2]C , report its measured T/C.
Result: 93 % of control
